// data source = patent US9340577B2

subject_of_test: HLA-A11 (A*1101) (Homo sapiens, UniProt P04439, A114D/D185E/E176A/F33Y/L180Q/S129P/T187R)
assay_procedure: biochemical
# IC50 per entry
readout_kind: IC50

>>> result("CC(C)C[C@H](NC(=O)[C@H](CO)NC(=O)[C@@H](N)CCCNC(=N)N)C(=O)N[C@@H](Cc1ccc(O)cc1)C(=O)N[C@@H](CC(N)=O)C(=O)N[C@H](C(=O)N[C@H](C(=O)N[C@@H](C)C(=O)N[C@H](C(=O)N[C@@H](CC(C)C)C(=O)N[C@@H](Cc1ccc(O)cc1)C(=O)O)[C@@H](C)O)C(C)C)[C@@H](C)O [Peptide 1595.06]")
"148 nM"
>>> result("CSCC[C@H](NC(=O)[C@@H](NC(=O)[C@H](C)N)[C@@H](C)O)C(=O)N[C@@H](CS)C(=O)N[C@@H](CCCCN)C(=O)N[C@@H](Cc1c[nH]cn1)C(=O)N[C@@H](Cc1ccc(O)cc1)C(=O)N[C@@H](CCCNC(=N)N)C(=O)N[C@@H](CCCNC(=N)N)C(=O)O [Peptide 88.0343]")
"19 nM"
>>> result("CC(C)C[C@H](NC(=O)[C@H](Cc1c[nH]cn1)NC(=O)[C@H](CO)NC(=O)[C@H](CO)NC(=O)[C@H](Cc1c[nH]cn1)NC(=O)[C@H](C)NC(=O)[C@@H](N)CCCNC(=N)N)C(=O)N[C@@H](CCCCN)C(=O)O [Peptide 1556.70]")
"18 nM"
